Every entry's value here was drawn from patent US20250263376A1.

# Test system: neuroblastoma SH-SY5Y
# protocol.notes: Safety, MTT test in SH-SY5Y
# Type: cell-based
# conditions.used: 200 μM, 48 hours
Reported MTT, Neuroblastoma SH-SY5Y values are given for each entry in this list.

Here are 3 compounds together with their reported answers.
Exercise: Give MTT, Neuroblastoma SH-SY5Y (neuroblastoma SH-SY5Y) of the following compound: O=C(/C=C/c1ccc(Cl)cc1)NCCCCCO
Key: 100.55 ± 2.31 % of solvent control

Exercise: Give MTT, Neuroblastoma SH-SY5Y (neuroblastoma SH-SY5Y) of the following compound: O=C(/C=C/c1ccc(Cl)cc1)NCCO
Key: 101.30 ± 2.94 % of solvent control

Exercise: Give MTT, Neuroblastoma SH-SY5Y (neuroblastoma SH-SY5Y) of the following compound: O=C(/C=C/c1ccc(Cl)cc1)NCCCO
Key: 99.79 ± 3.97 % of solvent control

Others:
Exercise: Give MTT, Neuroblastoma SH-SY5Y (neuroblastoma SH-SY5Y) of the following compound: O=C(/C=C/c1ccccc1)NCCCCCO
Key: 100.62 ± 5.99 % of solvent control

Exercise: Give MTT, Neuroblastoma SH-SY5Y (neuroblastoma SH-SY5Y) of the following compound: Cc1ccc(/C=C/C(=O)NCCCCCO)cc1
Key: 100.27 ± 3.50 % of solvent control

###

# System: hepatocarcinoma HepG2
# protocol.notes: Safety, LDH test in HepG2
# Type: cell-based
# conditions.used: 100 μM, 48 hours, vs Triton X-100
Reported LDH, Hepatocarcinoma HepG2 values are given for each entry in this list.

Here are 4 compounds together with their reported answers.
Exercise: Would you mind telling me what LDH, Hepatocarcinoma HepG2 value was observed for O=C(/C=C/c1ccccc1)NCCCCCO ?
Key: 5.31 percentage of positive control

Exercise: Would you mind telling me what LDH, Hepatocarcinoma HepG2 value was observed for Cc1ccc(/C=C/C(=O)NCCCCCO)cc1 ?
Key: 3.90 percentage of positive control

Exercise: Would you mind telling me what LDH, Hepatocarcinoma HepG2 value was observed for O=C(/C=C/c1ccc(Cl)cc1)NCCCCCO ?
Key: 4.90 percentage of positive control

Exercise: Would you mind telling me what LDH, Hepatocarcinoma HepG2 value was observed for O=C(/C=C/c1ccc(Cl)cc1)NCCCO ?
Key: 5.38 percentage of positive control

Please examine the following record next.
Exercise: Would you mind telling me what LDH, Hepatocarcinoma HepG2 value was observed for O=C(/C=C/c1ccc(Cl)cc1)NCCO ?
Key: 3.09 percentage of positive control

###

# Tested on: E. coli WP2
# protocol.notes: Ames microplate test, E. coli WP2;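 further: bacteria exposed to compound for 90 min at 37 °C in 24-well plates, then transferred with indicator medium to 384-well plates and incubated 48 h before yellow well counting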
# conditions.used: 0.5 mM, + S9
readout: Increase in the number of yellow wells compared to the reference level, E. coli WP2

Here are 3 molecules together with their reported answers.
Exercise: Would you mind telling me what Increase in the number of yellow wells compared to the reference level, E. coli WP2 value was observed for O=C(/C=C/c1ccccc1)NCCCCCO ?
Key: 0.27

Exercise: Would you mind telling me what Increase in the number of yellow wells compared to the reference level, E. coli WP2 value was observed for O=C(/C=C/c1ccc(Cl)cc1)NCCCCCO ?
Key: 0.62

Exercise: Would you mind telling me what Increase in the number of yellow wells compared to the reference level, E. coli WP2 value was observed for CCC(O)CNC(=O)/C=C/c1ccc(Cl)cc1 (stereo not shown) ?
Key: 0.83

Please examine the following record next.
Exercise: Would you mind telling me what Increase in the number of yellow wells compared to the reference level, E. coli WP2 value was observed for O=C(/C=C/c1ccccc1)NCCCCCCO ?
Key: 0.75

###

# System: S. typhimurium TA100
# protocol.notes: Ames microplate test, TA100
# Type: cell-based, Salmonella typhimurium
# conditions.used: 2.0 mM, + S9
readout: Increase in the number of yellow wells compared to the reference level, TA100
Please state the value as a number alone, without comment.

Here are 3 compounds together with their reported answers.
Exercise: Would you mind telling me what Increase in the number of yellow wells compared to the reference level, TA100 value was observed for O=C(/C=C/c1ccccc1)NCCCCCCO ?
Key: 0.58

Exercise: Would you mind telling me what Increase in the number of yellow wells compared to the reference level, TA100 value was observed for O=C(/C=C/c1ccc(Cl)cc1)NCCCCCO ?
Key: 0.67

Exercise: Would you mind telling me what Increase in the number of yellow wells compared to the reference level, TA100 value was observed for CCC(O)CNC(=O)/C=C/c1ccc(Cl)cc1 (stereo not shown) ?
Key: 0.31

Others:
Exercise: Would you mind telling me what Increase in the number of yellow wells compared to the reference level, TA100 value was observed for O=C(/C=C/c1ccccc1)NCCCCCO ?
Key: 0.61

###

# Test system: B16-F10 murine melanoma cell line
# protocol.notes: Cytotoxicity (MTT) in B16-F10 murine melanoma cells
# Format: cell-based
# conditions.used: 250 μM, 48 h
readout: Cytotoxicity study in B16F10 cells, % viability (%)
The figure you give is taken to be in %; do not add the unit.

Exercise: Would you mind telling me what Cytotoxicity study in B16F10 cells, % viability value was observed for CC(C)C(CO)NC(=O)/C=C/c1ccc(Cl)cc1 (centres unmarked) ?
Key: 72.6

Exercise: Would you mind telling me what Cytotoxicity study in B16F10 cells, % viability value was observed for Cc1ccc(/C=C/C(=O)NCCCCO)cc1 ?
Key: 41.2

Exercise: Would you mind telling me what Cytotoxicity study in B16F10 cells, % viability value was observed for CCC(O)CNC(=O)/C=C/c1ccc(Cl)cc1Cl (centres unmarked) ?
Key: 33.9

Exercise: Would you mind telling me what Cytotoxicity study in B16F10 cells, % viability value was observed for O=C(/C=C/c1ccccc1)NCCCCO ?
Key: 103.2

Exercise: Would you mind telling me what Cytotoxicity study in B16F10 cells, % viability value was observed for O=C(/C=C/c1ccccc1)NCCO ?
Key: 80.9

Others:
Exercise: Would you mind telling me what Cytotoxicity study in B16F10 cells, % viability value was observed for O=C(/C=C/c1ccc(Cl)cc1Cl)NCCCCO ?
Key: 37.4

Exercise: Would you mind telling me what Cytotoxicity study in B16F10 cells, % viability value was observed for O=C(/C=C/c1ccccc1)NCCCCCO ?
Key: 95.6

Exercise: Would you mind telling me what Cytotoxicity study in B16F10 cells, % viability value was observed for O=C(/C=C/c1ccc(Cl)cc1)N1CCC(O)CC1 ?
Key: 96.6

Exercise: Would you mind telling me what Cytotoxicity study in B16F10 cells, % viability value was observed for CCC(CO)NC(=O)/C=C/c1ccc(Cl)cc1 (centres unmarked) ?
Key: 85.4

Exercise: Would you mind telling me what Cytotoxicity study in B16F10 cells, % viability value was observed for Cc1ccc(/C=C/C(=O)NCCCCCO)cc1 ?
Key: 75.7

Exercise: Would you mind telling me what Cytotoxicity study in B16F10 cells, % viability value was observed for O=C(/C=C/c1ccc(Cl)cc1Cl)NCCCO ?
Key: 38.3

###

# System: fibroblasts (BJ)
# protocol.notes: Safety, MTT test in fibroblasts
# Format: cell-based
# conditions.used: 100 μM, 48 hours
Reported MTT, Fibroblasts (BJ) values are given for each entry in this list.

Exercise: Give MTT, Fibroblasts (BJ) (fibroblasts (BJ)) of the following compound: O=C(/C=C/c1ccccc1)NCCCCCO [Compound A-133]
Key: 99.41 ± 5.96 % of solvent control

Exercise: Give MTT, Fibroblasts (BJ) (fibroblasts (BJ)) of the following compound: Cc1ccc(/C=C/C(=O)NCCCCCO)cc1 [H-415/21]
Key: 102.12 ± 2.71 % of solvent control

Exercise: Give MTT, Fibroblasts (BJ) (fibroblasts (BJ)) of the following compound: O=C(/C=C/c1ccc(Cl)cc1)NCCO [H-427/21]
Key: 101.82 ± 3.99 % of solvent control

Others:
Exercise: Give MTT, Fibroblasts (BJ) (fibroblasts (BJ)) of the following compound: O=C(/C=C/c1ccc(Cl)cc1)NCCCCCO [Compound A-111]
Key: 99.88 ± 5.25 % of solvent control

Exercise: Give MTT, Fibroblasts (BJ) (fibroblasts (BJ)) of the following compound: O=C(/C=C/c1ccc(Cl)cc1)NCCCO [H-330/21]
Key: 100.54 ± 5.01 % of solvent control

###

# Test system: S. typhimurium TA1537
# protocol.notes: Ames microplate test, TA1537
# Format: cell-based, Salmonella typhimurium
# conditions.used: 1.0 mM, + S9
Reported Increase in the number of yellow wells compared to the reference level, TA1537 values are given for each entry in this list.
Please state the value as a number alone, without comment.

Exercise: Would you mind telling me what Increase in the number of yellow wells compared to the reference level, TA1537 value was observed for O=C(/C=C/c1ccccc1)NCCCCCO ?
Key: 0.36

Exercise: Would you mind telling me what Increase in the number of yellow wells compared to the reference level, TA1537 value was observed for CCC(O)CNC(=O)/C=C/c1ccc(Cl)cc1 (stereo not shown) ?
Key: 1.33

Exercise: Would you mind telling me what Increase in the number of yellow wells compared to the reference level, TA1537 value was observed for O=C(/C=C/c1ccccc1)NCCCCCCO ?
Key: 0.00

Exercise: Would you mind telling me what Increase in the number of yellow wells compared to the reference level, TA1537 value was observed for O=C(/C=C/c1ccc(Cl)cc1)NCCCCCO ?
Key: 0.45
